// provenance: the supplement of paper PMC9170038

system: MS2 coat protein; assay: apparent KD of MS2 coat protein; designed switch direction (-1 OFF switch, 1 ON switch): -1; higher = weaker reporter binding; conditions: input ligand: microRNA oligo, concentration not stated
apparent KD of MS2 coat protein for assorted sequences
Record the value in nM, omitting the unit from your answer.

Worked cases, answers included:
[
  {
    "ordered_residues": "CUGUACAUAGGAUAUAGUUGUUUUUACAUGAGGAUCACCCAUGUUACUCCUCUCUCUCUUCUAGAAGGAUGUUUUU [JR_E5_Sub007] (Eterna round: R96, puzzle: Exclusion 5)",
    "target_under_test": "MS2 coat protein",
    "apparent KD of MS2 coat protein, nM": 50.7
  },
  {
    "ordered_residues": "AAGAUUAGGAAAGGAUAUAAAGAGAAACAAAGUGCACAUGAGGAUCACCCAUGUACUGACACGCGUUAGAAGGUUCCAGUCCUC [Eternabot solution 40] (Eterna round: R96, puzzle: Exclusion NG 2)",
    "target_under_test": "MS2 coat protein",
    "apparent KD of MS2 coat protein, nM": 15.5
  },
  {
    "ordered_residues": "GGAUCUUGGGUCAGGAUAUGCUGAUAGUUAUGUCAGCAGAAGGGACAUGAGGAUCACCCAUGUGCUUGGUUUUG [Magic-17] (Eterna round: R96, puzzle: Brourd's mod of Exclusion 4)",
    "target_under_test": "MS2 coat protein",
    "apparent KD of MS2 coat protein, nM": 12.7
  },
  {
    "ordered_residues": "UACCUGAGGCAAAGCUUUAGGCUUACAUGAGGAUCACCCAUGUAGGAUAUGGUAGGCUUUGCUUACCAGAAGGACAUGGAAAUU [Mat - Exclusion NG 3 - Mod of JL - D22] (Eterna round: R96, puzzle: Exclusion NG 3)",
    "target_under_test": "MS2 coat protein",
    "apparent KD of MS2 coat protein, nM": 18
  },
  {
    "ordered_residues": "AGCUGUGGCCGAGGAUAUCCAGCCUUAAAUACCGACGUAUAGUCGGACAUGAGGAUCACCCAUGUGGAGAAGGUGGUCUCAGCA [Eli eng2 - 041] (Eterna round: R96, puzzle: Exclusion NG 2)",
    "target_under_test": "MS2 coat protein",
    "apparent KD of MS2 coat protein, nM": 41.8
  }
]

Using MS2 coat protein as the test system, report measured apparent KD of MS2 coat protein of UGAGUGCUGCGAGGAUAUACAUGAGGAUCACCCAUGUGGAUGUCUGAGGCUUUGCCUCAGACAAUGUAGAAGGCGCAGUACUCU [JL ENG2 1.21] (Eterna round: R96, puzzle: Exclusion NG 2) .
14.2

Param request: apparent KD of MS2 coat protein | system MS2 coat protein | item AAGAAACAUGAGGAUCACCCAUGUGAGGAUAUGAGCAAGAAAAGAAAAGAAAGAAGAAUCAGAAGGCACAAAGG [salish99-ex1_r3_050] (Eterna round: R96, puzzle: Exclusion 1)
31.7

---

Overview of recorded apparent KD of MS2 coat protein for various sequences
system: MS2 coat protein; assay: apparent KD of MS2 coat protein; designed switch direction (-1 OFF switch, 1 ON switch): 1; higher = weaker reporter binding; conditions: input ligand: microRNA oligo, concentration not stated
Write the answer as a number in nM, unit excluded.

Known results for sequences:
[
  {
    "ordered_residues": "GCGAGCGUACUUGCAACAUGAGGAUCACCCAUGUUAACUGGACAGGAUAUGGUACCGUUUCGGUACCAGAAGGGUUCCUCAAUG [JL SSNG3 3.62] (Eterna round: R96, puzzle: Same State NG 3)",
    "apparent KD of MS2 coat protein (nM)": 116
  },
  {
    "ordered_residues": "GUGGUCAGACAUGAGGAUCACCCAUGUGGAAUAAAUAACAGACAGGAUAUCGAAUAUAGGAUAUAUGAGAAGGGUCGAUUGGUG (Eterna round: R96, puzzle: Same State NG 3)",
    "apparent KD of MS2 coat protein (nM)": 63
  }
]

Return reported apparent KD of MS2 coat protein. Input sequence: UAUGAAUUGCAAGGAUAUUGAUAACAUGAGGAUCACCCAUGUAAUUGAUCGAGUUAGAUCAGUUACAAGAAGGUGCUAUUGUUU [JR_SSNG2_Sub037] (Eterna round: R96, puzzle: Same State NG 2)
33.2

Query apparent KD of MS2 coat protein for GCUAGAAUUAACGCCUACAUGAGGAUCACCCAUGUAUGUAGGCAGGAUAUCGUUUGCAAAGCAAACGAGAAGGGCCUUACUAGC [Mat - Same State NG 3 - JL Mod - D31] (Eterna round: R96, puzzle: Same State NG 3)
31

Please report the measured apparent KD of MS2 coat protein for UGUUGUAUUACAGGAUAUCUAUGAUUUUUUUUUAGAGAAGGGUAUUCACAUGAGGAUCACCCAUGUAUAUACGAGGAAGUUGUG [JMF's solution 65] (Eterna round: R96, puzzle: Same State NG 1)
39.8

Please list apparent KD of MS2 coat protein recorded for the sequence AGCUAGUACGAAGGAUAUACAAACAUGAGGAUCACCCAUGUAUACAUGGUUUAAUGAGACUACAUGUAGAAGGUCGUACUAGCA [SameState NG2 #13] (Eterna round: R96, puzzle: Same State NG 2)
423

Entry UUGUUUUGUAAUUAACAUGAGGAUCACCCAUGUCUUGGCACAGAGGAUAUACAUGUUUGUUUGUAGUAGAAGGCUGUUUAUUGU [JR_SSNG3_Sub096] (Eterna round: R96, puzzle: Same State NG 3) needs its apparent KD of MS2 coat protein filled in; supply it.
116

Tell me its apparent KD of MS2 coat protein given UAAUUAAGUCAAGGAUAUCACGUCGAUUAGACGUGAGAAGGUGAUUAAUACAUGAGGAUCACCCAUGUAAUACAUGAAUAAUUA [SSNG1/11-B2] (Eterna round: R96, puzzle: Same State NG 1) as the entry.
61.4
